# Test system: Staphylococcus aureus
# procedure-details: Inhibition zone, agar plate diffusion
# Type: cell-based
# settings: read-out: Inhibition zone (IZ)
property: zone of inhibition at 500 µg/mL

Inquiry: Respond only with zone of inhibition at 500 µg/mL recorded for `COc1ccc(Nc2n[nH]c(N=Cc3c(C)n(C)n(-c4ccccc4)c3=O)c2C(=O)Nc2ccc(Cl)cc2)cc1`
Reply text: < 8 mm

Inquiry: Give a short answer stating reported zone of inhibition at 500 µg/mL for `COc1ccc(Nc2n[nH]c(N=Cc3ccc(N4CCCCC4)cc3)c2C(=O)Nc2ccccc2)cc1` .
Reply text: < 8 mm

Inquiry: Return reported zone of inhibition at 500 µg/mL. Input compound: `COc1ccc(Nc2n[nH]c(N=Cc3c(C)n(C)n(-c4ccccc4)c3=O)c2C(=O)Nc2ccc(C)cc2)cc1`
Reply text: 23 mm

Inquiry: Using the record for `COc1ccc(Nc2n[nH]c(N=Cc3c(C)nn(-c4ccccc4)c3Cl)c2C(=O)Nc2ccc(Cl)cc2)cc1` , state its measured zone of inhibition at 500 µg/mL.
Reply text: 24 mm
